B1: Zinc finger MYM-type protein 6, residues 427 to 504; numbered along this chain, O95789 (parent)
chain: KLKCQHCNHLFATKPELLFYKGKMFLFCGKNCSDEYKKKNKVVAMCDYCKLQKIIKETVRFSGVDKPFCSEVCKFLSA

variants of: B1; assay: abundance fitness (aPCA) (normalised: wild type 0, dead -1); higher = more abundant; growth selection in yeast, the domain comes from the species named; details: Homo sapiens
Tag: 1 if measured abundance fitness is not below 0.02, 0 if it is.

Problem: Hi team, for `L51V` , is the recorded abundance fitness at or above 0.02?
Solution: 0

Problem: Check this variant for abundance fitness at or above 0.02: `K66T`
Solution: 0

Problem: Textbook exercise: given the entry `V64M` , state whether its abundance fitness is greater than or equal to 0.02.
Solution: 1

Problem: Could you please find out whether `S33G` has abundance fitness that meets 0.02 or exceeds it?
Solution: 0

Problem: Decide: abundance fitness of `N31H` >= 0.02?
Solution: 1

Problem: # check: abundance fitness of `D65P` is greater than or equal to 0.02
Solution: 0

Problem: Please check the record `A78E` and state if its abundance fitness is at or above 0.02.
Solution: 0

Problem: Decide: abundance fitness of `F27W` >= 0.02?
Solution: 0

Problem: hey, is abundance fitness for this one >= 0.02? `M24W`
Solution: 0

Problem: # bool: abundance fitness of `K66H` >= 0.02
Solution: 0

Problem: # bool: abundance fitness of `R60W` >= 0.02
Solution: 0

Problem: Please indicate if the recorded abundance fitness for `K53S` meets or exceeds 0.02.
Solution: 0

Problem: Quick check, abundance fitness >= 0.02? `I54S`
Solution: 1

Problem: Please indicate if the recorded abundance fitness for `N40Y` meets or exceeds 0.02.
Solution: 0

Problem: Determine whether measured abundance fitness meets or exceeds 0.02 for `M24A`
Solution: 0

Problem: Test whether the variant `C69E` records abundance fitness of 0.02 or higher.
Solution: 0

Problem: Hello, I need to know if `V72L` has measured abundance fitness not below 0.02. Thanks!
Solution: 0

Problem: Check this variant for abundance fitness at or above 0.02: `L51R`
Solution: 1

Problem: Is abundance fitness for `L76Q` at or above 0.02?
Solution: 1

Problem: Could you please find out whether `R60V` has abundance fitness that meets 0.02 or exceeds it?
Solution: 0

Problem: State whether the measured abundance fitness reaches 0.02, counting equality as reaching it, for `F25W`
Solution: 0

Problem: Could you tell me if the measured abundance fitness of `G63F` reaches 0.02 or more?
Solution: 0

Problem: Reported abundance fitness at or above 0.02? `K30Q`
Solution: 0

Problem: Check this variant for abundance fitness at or above 0.02: `D65E`
Solution: 1

Problem: Tell me whether abundance fitness is at least 0.02 here: `Y36W`
Solution: 0

Problem: Textbook exercise: given the entry `T58H` , state whether its abundance fitness is greater than or equal to 0.02.
Solution: 1

Problem: Tell me whether abundance fitness is at least 0.02 here: `C49Q`
Solution: 1

Problem: Could you verify whether the entry `S33L` shows abundance fitness of no less than 0.02?
Solution: 0

Problem: Does abundance fitness meet or surpass 0.02 for `K56G` ?
Solution: 0

Problem: Identify whether the reported abundance fitness of the following variant is 0.02 or greater: `R60P`
Solution: 1

Problem: Hi, just wondering whether `C49V` shows abundance fitness of 0.02 or higher.
Solution: 0

Problem: I'd appreciate it if you could say whether `D34W` has abundance fitness at least equal to 0.02.
Solution: 0

Problem: Can `S70Q` be said to have abundance fitness at or above 0.02?
Solution: 0

Problem: Hello, I need to know if `N31W` has measured abundance fitness not below 0.02. Thanks!
Solution: 0

Problem: Decide: is the reported value of abundance fitness for `K53V` equal to or greater than 0.02?
Solution: 0

Problem: Is it the case that `G63T` has abundance fitness reaching or exceeding 0.02?
Solution: 0

Problem: Form field: abundance fitness at least 0.02? Entry: `C69L`
Solution: 0

Problem: Say whether `F75K` shows abundance fitness of 0.02 or more.
Solution: 1

Problem: Test whether the variant `G63E` records abundance fitness of 0.02 or higher.
Solution: 0

Problem: # bool: abundance fitness of `K38V` >= 0.02
Solution: 0

Problem: Is reported abundance fitness greater than or equal to 0.02 here: `V72T`
Solution: 1

Problem: Given the entry `F61E` , answer whether its abundance fitness meets or surpasses 0.02.
Solution: 1

Problem: Does abundance fitness meet or surpass 0.02 for `V59R` ?
Solution: 0

Problem: Could you verify whether the entry `K38S` shows abundance fitness of no less than 0.02?
Solution: 0

Problem: Decide: abundance fitness of `E71G` >= 0.02?
Solution: 0

Problem: Threshold query (abundance fitness >= 0.02) on `F61W`
Solution: 1

Problem: Is abundance fitness at least 0.02? Consider `K53C`
Solution: 1

Problem: Please indicate if the recorded abundance fitness for `S62T` meets or exceeds 0.02.
Solution: 0

Problem: // inclusive: abundance fitness at least 0.02? input: `V64G`
Solution: 1

Problem: Is it the case that `L26W` has abundance fitness reaching or exceeding 0.02?
Solution: 0

Problem: Reported abundance fitness reaches at least 0.02 for `K74R` ?
Solution: 0

Problem: Please tell me: is the variant `A44S` at or over 0.02 in terms of abundance fitness?
Solution: 0

Problem: abundance fitness >= 0.02 for `E71S` ?
Solution: 0

Problem: I'd appreciate it if you could say whether `P67T` has abundance fitness at least equal to 0.02.
Solution: 0

Problem: Threshold query (abundance fitness >= 0.02) on `S33Q`
Solution: 0

Problem: Is abundance fitness for `D65S` at or above 0.02?
Solution: 0

Problem: Does abundance fitness meet or surpass 0.02 for `K53G` ?
Solution: 0

Problem: Hi, just wondering whether `E71P` shows abundance fitness of 0.02 or higher.
Solution: 0

Problem: Could you tell me if the measured abundance fitness of `C32G` reaches 0.02 or more?
Solution: 0

Problem: Is abundance fitness at least 0.02? Consider `K21S`
Solution: 0

Problem: Has `C46W` a recorded abundance fitness greater than or equal to 0.02?
Solution: 1

Problem: Identify whether the reported abundance fitness of the following variant is 0.02 or greater: `I55E`
Solution: 1

Problem: Quick check, abundance fitness >= 0.02? `K39A`
Solution: 1

Problem: Record `L51T` ; criterion: abundance fitness no lower than 0.02. Met?
Solution: 1

Problem: Please tell me: is the variant `D65C` at or over 0.02 in terms of abundance fitness?
Solution: 0

Problem: Hello, I need to know if `D65M` has measured abundance fitness not below 0.02. Thanks!
Solution: 0

Problem: Confirm if abundance fitness reported for the variant `M24P` is 0.02 or above.
Solution: 1

Problem: Say whether `F68Y` shows abundance fitness of 0.02 or more.
Solution: 1

Problem: Is it the case that `N31P` has abundance fitness reaching or exceeding 0.02?
Solution: 0

Problem: Is the recorded value of abundance fitness equal to or greater than 0.02 for this variant? `Q52M`
Solution: 1

Problem: Threshold query (abundance fitness >= 0.02) on `C49S`
Solution: 0

Problem: Can `K39L` be said to have abundance fitness at or above 0.02?
Solution: 0

Problem: Item `C69V` with abundance fitness of 0.02 or above?
Solution: 0

Problem: Textbook exercise: given the entry `F25S` , state whether its abundance fitness is greater than or equal to 0.02.
Solution: 0

Problem: Please check the record `C46R` and state if its abundance fitness is at or above 0.02.
Solution: 0

Problem: Does the reported abundance fitness for `F61R` fall at or above the 0.02 mark?
Solution: 1

Problem: Has `A44Y` a recorded abundance fitness greater than or equal to 0.02?
Solution: 0

Problem: Does the variant `G29D` have recorded abundance fitness that is 0.02 or more?
Solution: 0

Problem: Quick check, abundance fitness >= 0.02? `V72N`
Solution: 1

Problem: Has `L51M` a recorded abundance fitness greater than or equal to 0.02?
Solution: 1

Problem: In plain terms: is recorded abundance fitness at least 0.02 for `S77Y` ?
Solution: 0

Problem: Tell me whether abundance fitness is at least 0.02 here: `K50W`
Solution: 0

Values were extracted from the Human Domainome abundance scans (Beltran et al. 2025).
